Source of measurements: patent US9738655B2

- Assay System: purified human plasma kallikrein (Homo sapiens (Human))
- Sequence (P03952 391-638): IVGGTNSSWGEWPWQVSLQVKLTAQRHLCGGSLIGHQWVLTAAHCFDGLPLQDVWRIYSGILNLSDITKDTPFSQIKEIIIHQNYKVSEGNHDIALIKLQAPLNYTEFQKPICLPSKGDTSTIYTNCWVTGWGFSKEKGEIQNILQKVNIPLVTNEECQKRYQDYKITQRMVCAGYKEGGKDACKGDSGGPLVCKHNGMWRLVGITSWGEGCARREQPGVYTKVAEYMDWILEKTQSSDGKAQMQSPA
- Sequence (P03952 20-390 partner): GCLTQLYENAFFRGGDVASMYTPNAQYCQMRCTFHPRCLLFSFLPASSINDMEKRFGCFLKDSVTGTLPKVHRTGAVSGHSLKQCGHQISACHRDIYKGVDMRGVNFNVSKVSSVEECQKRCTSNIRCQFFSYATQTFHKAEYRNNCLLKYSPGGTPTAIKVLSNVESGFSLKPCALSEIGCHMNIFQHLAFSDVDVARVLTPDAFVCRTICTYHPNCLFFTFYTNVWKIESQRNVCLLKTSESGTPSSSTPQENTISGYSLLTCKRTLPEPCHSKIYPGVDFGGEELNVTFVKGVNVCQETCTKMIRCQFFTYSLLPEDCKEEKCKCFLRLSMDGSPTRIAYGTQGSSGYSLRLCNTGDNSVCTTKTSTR
- Assay Text: Plasma kallikrein enzyme inhibition assay (chromogenic substrate S-2302)
- Type: biochemical
- Condition Details: measured at 37° C. (*)
pKi: −log10 of the molar value. Counter-ions that a name gives are not always drawn.
Observation Type: pKi

Worked examples follow.
COC(=O)c1ccc2cc(NC(=O)C3c4cccc(-c5cncnc5)c4CCN3C(=O)c3cn(-c4cccc(Cl)c4F)nn3)ccc2n1 (stereo not drawn) [Example 128, TFA salt] = 7.19
COC1CCN(c2cccc3c2CCN(C(=O)c2cn(-c4cccc(Cl)c4F)nn2)C3C(=O)Nc2ccc(-c3ncc[nH]3)cc2)CC1 (stereo not drawn) [Example 141, TFA] = 6.79

[A] COC1CCN(c2cccc3c2CCN(C(=O)c2cc(-c4cccc(Cl)c4F)no2)C3C(=O)Nc2ccc(C(=O)O)cc2)CC1 (racemic) [Example 268, TFA salt]
[B] COC1CCN(c2cccc3c2CCN(C(=O)c2nnn(-c4cccc(Cl)c4F)c2C)C3C(=O)Nc2ccc(-c3ncc[nH]3)cc2)CC1 (stereo not drawn) [Example 140, TFA salt]
Compare A and B by numeric pKi and name the larger one. Answer = label.
A
(A: 6.75, B: 5.63)
